tested on: HEK-293T; experiment: Multiplex assay against HEK293T; type: toxicity, cell-based; conditions: human, 12 h, 10 µM, compound concentration 10 uM, replicate 2
reportedProperty: Population Fragmented Nuclei (%)
State just the number; it will be interpreted in %.

Examples with their reported Population Fragmented Nuclei (%) follow.
INSERT INTO assay_data (molecule, reportedproperty, measvalue) VALUES
  ('C[C@H]1[C@H]2CC[C@H]3[C@@H]4CC=C5C[C@@H](N(C)C)CC[C@]5(C)[C@H]4CC[C@]23CN1C [CONESSINE]', 'Population Fragmented Nuclei (%)', 7),
  ('CSc1ccccc1N1CCN(CCCCCC(=O)NC2CCCc3ccccc32)CC1.Cl (configuration not stated)', 'Population Fragmented Nuclei (%)', 5),
  ('C[C@@H]1C[C@H]2[C@@H]3CCC4=CC(=O)C=C[C@]4(C)[C@@]3(F)[C@@H](O)C[C@]2(C)[C@@]1(O)C(=O)CO [DEXAMETHASONE]', 'Population Fragmented Nuclei (%)', 5),
  ('COc1ccc2c(c1)C(C(=O)N(Cc1ccc(N(C)C)cc1)c1ccc(C(C)C)cc1)CCC2.Cl (configuration not stated)', 'Population Fragmented Nuclei (%)', 4),
  ('Cc1ccc(/C(=C\CN2CCCC2)c2ccccn2)cc1 [TRIPROLIDINE]', 'Population Fragmented Nuclei (%)', 6);

Task: Would you kindly share the measured Population Fragmented Nuclei (%) for N#Cc1c(N)nc(SCc2csc(-c3ccc(Cl)cc3)n2)c(C#N)c1-c1ccc(OCCO)cc1 [CAPADENOSON] ?
Output: 6

Task: Next molecule up: N[C@@]1(C(=O)O)CO[C@H]2[C@H](C(=O)O)[C@H]21 [LY-379268]
Output: 8

Task: Next molecule up: Cc1ccccc1C(=O)Nc1ccc(C(=O)N2CCCC(N(C)C)c3ccccc32)cc1.Cl (configuration not stated)
Output: 8

Task: Next molecule up: CCCN1CCC[C@@H]2Cc3n[nH]cc3C[C@H]21.Cl [QUINPIROLE HYDROCHLORIDE]
Output: 5

Task: Next molecule up: CNC[C@H](O)c1ccc(O)c(O)c1 [EPINEPHRINE]
Output: 11

Task: Next molecule up: COc1cc(NC(=O)CCN2CCC(OC(=O)Nc3ccccc3-c3ccccc3)CC2)c(Cl)cc1CNC[C@H](O)c1ccc(O)c2[nH]c(=O)ccc12 [BATEFENTEROL]
Output: 5

* * *

system: U2OS; experiment: Multiplex assay against U2OS; format: toxicity, cell-based; conditions: human, 12 h, 10 µM, compound concentration 10 uM, replicate 2
reportedProperty: Population Hoechst High Intensity Objects (%)
State just the number; it will be interpreted in %.

Examples with their reported Population Hoechst High Intensity Objects (%) follow.
INSERT INTO assay_data (compound, measvalue) VALUES
  ('N#Cc1c(N)nc(SCc2csc(-c3ccc(Cl)cc3)n2)c(C#N)c1-c1ccc(OCCO)cc1', 0),
  ('Cc1ccc(C(C)(O)c2nc3ccccc3s2)c(C)c1 (centres undefined)', 4);

Task: Would you kindly share the measured Population Hoechst High Intensity Objects (%) for C[C@H]1[C@H]2CC[C@H]3[C@@H]4CC=C5C[C@@H](N(C)C)CC[C@]5(C)[C@H]4CC[C@]23CN1C ?
Output: 0

Task: Next compound up: COc1cc(NC(=O)CCN2CCC(OC(=O)Nc3ccccc3-c3ccccc3)CC2)c(Cl)cc1CNC[C@H](O)c1ccc(O)c2[nH]c(=O)ccc12
Output: 7
